Provide the recorded pA2 (Schild analysis, agonist NDP-MSH, cAMP) for the entries that follow.
- TARGET UNDER TEST: mouse melanocortin 3 receptor (mouse, UniProt P33033 1-323)
- Sequence (P33033 whole entry): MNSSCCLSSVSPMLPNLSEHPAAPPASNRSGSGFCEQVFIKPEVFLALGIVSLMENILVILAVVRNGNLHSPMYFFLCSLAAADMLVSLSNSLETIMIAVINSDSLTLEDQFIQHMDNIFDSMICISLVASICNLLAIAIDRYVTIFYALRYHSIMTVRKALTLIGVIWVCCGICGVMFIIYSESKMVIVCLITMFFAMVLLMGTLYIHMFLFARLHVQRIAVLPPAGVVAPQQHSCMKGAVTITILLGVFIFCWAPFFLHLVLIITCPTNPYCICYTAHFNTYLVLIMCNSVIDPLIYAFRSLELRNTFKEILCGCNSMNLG
- METHOD DESCRIPTION: cell-based or functional assay
Numbered stars: 1 amine (or outer) side, 2 acyl side, 3 side chain; on linkers, the order of the positions; unused ones are H or OH. Square brackets hold non-standard residues; d marks the D form. N(2-Aminoethyl)Gly = O=C(CN(CCN[*:3])[*:1])[*:2]
Write the value as a bare number.

// pA2 (Schild analysis, agonist NDP-MSH, cAMP) lookup, key: PRFFXAFP (head-to-tail cyclic; NPhe (N-benzylglycine) at 4; Dap at 5; DPro at 8) [MDE9-93c]
7.1

// pA2 (Schild analysis, agonist NDP-MSH, cAMP) lookup, key: PRFFXAFP (head-to-tail cyclic; NArg (N-(3-guanidino-propyl)-glycine) at 2; Dap at 5; DPro at 8) [MDE8-108-3c]
5.9

// pA2 (Schild analysis, agonist NDP-MSH, cAMP) lookup, key: PRFFXAFP (head-to-tail cyclic; Dap (diaminopropionic acid) at 5; DPro at 8, Dap5 parent scaffold; assayed as TFA salt; also called Compound 2; c[Pro-Arg-Phe-Phe-Dap-Ala-Phe-DPro]) [2 (MDE 6-82-1c)]
6.5

// pA2 (Schild analysis, agonist NDP-MSH, cAMP) lookup, key: PRFFXAFP (head-to-tail cyclic; Dap at 5; NAla (N-methylglycine) at 6; DPro at 8) [MDE8-108-6c]
5.6

// pA2 (Schild analysis, agonist NDP-MSH, cAMP) lookup, key: cyclo(PRFF[N(2-Aminoethyl)Gly]AF[dP]) [MDE9-111c]
6.9

// pA2 (Schild analysis, agonist NDP-MSH, cAMP) lookup, key: PRFFXAFP (head-to-tail cyclic; NPhe (N-benzylglycine) at 3; Dap at 5; DPro at 8) [MDE9-32c]
6.9
